Each recorded value in this set is attributed to PubChem BioAssay (NCI).

- System: UACC-62 melanoma
- experiment-summary: NCI tumour cell line growth inhibition, 48 h
endpoint-label: log10(TGI) (log10 of the value in µM)
On a log10 scale: recorded TGI, unit µM.

Please review the entries below; each comes with its answer.
1) COc1cc(C(=O)/C=C/c2cc(-c3ccc4c(c3)OCO4)n[nH]2)cc(OC)c1OC ... 0.59
2) Cc1ccc(N(C=O)c2c([N+](=O)[O-])cc([N+](=O)[O-])c3c2=[N+]([O-])CN=3)cc1 ... 1.47
3) C[C@@H]1S[C@H](c2c(F)cccc2Cl)n2c1nc1ccccc12 ... 1.47
4) O=C1Nc2ccc(Br)cc2/C1=N/S(=O)(=O)O ... 1.61
5) O=S1(=O)c2ccccc2N(c2ccccc2)c2nnnn21 ... 1.57

Please state, for each entry, its recorded log10(TGI).
1. CCCCCCCCOC(=O)C12Oc3ccc(-c4ccc5c(c4O)C(O)=C4C(=O)CC(C)C(O)C4(C(=O)OCCCCCCCC)O5)c(O)c3C(O)=C1C(=O)CC(C)C2O (centres undefined)
2. CNC(=O)ON(C(C)=O)C(=O)NC
3. Cn1[nH]cc2ccc3nc4ccccc4c(=O)c3c21
4. C=C(COCO)C(C)=O
5. C=C1c2nc3ccccc3n2C=C(c2cccc(Cl)c2)N1Cc1ccc(OC)cc1
6. COc1cc(-c2nn(-c3ccc(NC(=O)Nc4cc(C(F)(F)F)cc(C(F)(F)F)c4)cc3)cc2-c2ccncc2)ccc1Cl
7. CN1CCN(CCCNC(=O)c2c3c(n4ccccc24)C(=O)c2ncccc2C3=O)CC1

2.00
2.17
1.42
1.51
1.28
0.53
0.48

Please state, for each entry, its recorded log10(TGI).
1. CC(=Nc1ccc(N(C)C)cc1)c1ccccc1
2. CC1OC(n2cc(C(F)(F)F)c(=O)[nH]c2=O)C=CC1=O (centres undefined)
3. CCc1nc(C)cn1C(=O)OCc1nc2nc(Cl)nc(N3CCOCC3)c2[nH]1
4. O=C(/C=C/c1ccc(Cl)c(Cl)c1)c1ccccc1Cl
5. Nc1[nH]nc2nc(-c3cc(Cl)ccc3Cl)cc(-c3ccc(F)cc3)c12

1.53
1.68
0.44
1.41
1.51

###

- Tested on: DU-145 prostate
- experiment-summary: NCI tumour cell line growth inhibition, 48 h
endpoint-label: TGI (µM)
One number for each entry, in µM.

Please review the entries below; each comes with its answer.
1. O=C(Nc1nc(-c2ccc(Cl)cc2)cs1)c1cc(O)c(O)c(O)c1 ... 1840
2. CN1CCC2(c3ccccc3)CC(=O)/C(=C/c3ccc(Cl)c(Cl)c3)C1C2 (stereo not given) ... 11.9
3. COc1cccc(Nc2ncnc3cc(NC(=O)CCl)ccc23)c1 ... 2.6

Proceed to the following item.
What measured TGI goes with CCc1nc(C)cn1C(=O)OCc1nc2nc(Cl)nc(N3CCOCC3)c2[nH]1 ?
2.52

###

- Test system: XF 498 CNS
- experiment-summary: NCI tumour cell line growth inhibition, 48 h
endpoint-label: TGI

Please review the entries below; each comes with its answer.
1) C/C=C(\N=C=S)C(=O)OC1C(COC(C)=O)OC([C@]2(O)CC(=O)C(=N)C(C(=O)O)=C2O)C(O)C1OC1CC(OC)C(O)([C@@H](C)OC(=O)[C@@H](C)CC)C(C)O1 (some centres undefined) ... 5.92 µM
2) O=C(O)CCC(NC(=O)c1ccc(Nc2cnc3cc(C(F)(F)F)ccc3n2)cc1)C(=O)O (centres undefined) ... > 100 µM
3) Cc1cccc(C)c1NC(=O)CCC(=O)NC(N)=NC#N ... > 100 µM

Proceed to the following item.
What measured TGI goes with CN(c1ccccc1)c1cc2ccccc2nn1 ?
> 100 µM
